biological target: Adenosine receptor A2b (Homo sapiens, UniProt P29275); assay: Displacement of [3H]DPCPX from human adenosine A2B receptor expressed in HEK293 cells after 30 mins by liquid scintillation counting; assay type: cell-based
Sequence (P29275 whole entry): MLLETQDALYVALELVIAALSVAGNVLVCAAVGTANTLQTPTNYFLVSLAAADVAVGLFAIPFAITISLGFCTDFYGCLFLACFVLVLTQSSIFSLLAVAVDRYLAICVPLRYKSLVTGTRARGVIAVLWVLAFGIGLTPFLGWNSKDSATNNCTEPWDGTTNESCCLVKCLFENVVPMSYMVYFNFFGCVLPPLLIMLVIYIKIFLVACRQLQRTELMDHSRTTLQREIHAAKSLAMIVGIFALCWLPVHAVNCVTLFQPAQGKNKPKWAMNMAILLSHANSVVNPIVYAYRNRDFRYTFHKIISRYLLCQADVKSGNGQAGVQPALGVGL
attribute-measured: Ki (µM)

a: COc1ccc(NC(=O)c2coc3ccccc3c2=O)cc1O
b: O=C(Nc1ccccc1)c1coc2ccccc2c1=O
Task item: Looking at recorded values for Ki, does a or b come in lower? Mark your answer with the label of the selected entry.
Reply: a

----------
molecular target: Adenosine receptor A2a (Homo sapiens); test: Displacement of [3H][…] from human adenosine A2A receptor expressed in HeLa cells at 10 uM after 30 mins by liquid scintillation counting; assay type: cell-based
Activity calls are given as the source filed them. The rule behind the calls is not given here.
attribute-measured: Activity

| smiles-text | Activity |
| --- | --- |
| COc1ccc(NC(=O)c2cc(=O)c3ccccc3o2)cc1O | Active |
| COc1ccc(NC(=O)c2cc(=O)c3ccccc3o2)cc1OC | Active |
| O=C(Nc1ccc(O)c(O)c1)c1cc(=O)c2ccccc2o1 | Active |
| O=C(Nc1ccccc1)c1coc2ccccc2c1=O | 3% |
| O=C(Nc1ccc(O)cc1)c1cc(=O)c2ccccc2o1 | Active |

Kindly consider the entry below.
Task item: What does the record list as Activity for O=C(Nc1ccccc1)c1cc(=O)c2ccccc2o1 ?
Reply: Active
